Collected GBA EC50 Ratio ([35S]GTPγS binding) (EC50 compound/EC50 PYY(3-36)) values appear next to each entry.
biological target: human Y2 receptor (human) (UniProt P49146); test: cell-based or functional assay
Sequence (P49146 whole entry): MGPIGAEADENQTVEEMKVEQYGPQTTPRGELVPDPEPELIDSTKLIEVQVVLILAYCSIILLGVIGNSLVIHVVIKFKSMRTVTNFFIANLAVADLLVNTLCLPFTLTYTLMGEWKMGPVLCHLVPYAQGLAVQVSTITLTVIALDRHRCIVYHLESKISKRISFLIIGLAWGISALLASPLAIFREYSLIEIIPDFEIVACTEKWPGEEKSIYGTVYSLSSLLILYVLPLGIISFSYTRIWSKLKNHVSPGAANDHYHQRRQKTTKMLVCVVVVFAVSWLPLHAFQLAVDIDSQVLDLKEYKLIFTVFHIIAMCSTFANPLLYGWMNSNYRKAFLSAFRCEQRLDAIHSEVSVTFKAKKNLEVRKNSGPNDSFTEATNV
Starred links: 1 amine or outer side, 2 acyl side, 3 side chain; linkers in the order of their positions; H or OH if unused. Non-standard residues stand in square brackets, D forms with d. *: point of attachment. Ala(piperidin-4-yl) = O=C([C@H](CC1CCN([*:3])CC1)N[*:1])[*:2]; (2-carboxyethyl)carbamoyl = O=C(O)CCNC(=O)*; 4Pal = N[C@@H](Cc1ccncc1)C(=O)O; Cha = N[C@@H](CC1CCCCC1)C(=O)O; Iva = CC[C@](C)(N)C(=O)O; Aib = CC(C)(N)C(=O)O
Form rule: numeric answer, no unit written next to it.

Some entries whose results are on file:
Binder	Recorded number
Ac-S[dP][Ala(piperidin-4-yl)][4Pal][Cha][Aib]NK[Aib]TRQR[Cha]-NH2 (also: Ala(4Pip)25 D or L, not assigned, former peak isomer) [Ac-[D-Pro24, Ala(4Pip)25, Pya(4)26, Cha27,36, Aib28,31, Lys30]-PYY(23-36) former peak]	14
{(2-carboxyethyl)carbamoyl}-S[dP][Iva][4Pal][Cha][Aib]NK[Aib]TRQR[Cha]-NH2 (SMILES CC[C@](C)(NC(=O)[C@H]1CCCN1C(=O)[C@H](CO)NC(=O)NCCC(=O)O)C(=O)N[C@@H](Cc1ccncc1)C(=O)N[C@@H](CC1CCCCC1)C(=O)NC(C)(C)C(=O)N[C@@H](CC(N)=O)C(=O)N[C@@H](CCCCN)C(=O)NC(C)(C)C(=O)N[C@H](C(=O)N[C@@H](CCCNC(=N)N)C(=O)N[C@@H](CCC(N)=O)C(=O)N[C@@H](CCCNC(=N)N)C(=O)N[C@@H](CC1CCCCC1)C(N)=O)[C@@H](C)O) [(2-Carboxyethyl)carbamoyl-[D-Pro24, Iva25, Pya(4)26, Cha27,36, Aib28,31, Lys30]-PYY(23-36)]	2.4

In the following, a different binder is considered.
// GBA EC50 Ratio ([35S]GTPγS binding) (EC50 compound/EC50 PYY(3-36)) lookup, binder = Ac-LS[dP]R[4Pal][Cha][Aib]NK[Aib]TRQR[Cha]-NH2 (SMILES CC(=O)N[C@@H](CC(C)C)C(=O)N[C@@H](CO)C(=O)N1CCC[C@@H]1C(=O)N[C@@H](CCCNC(=N)N)C(=O)N[C@@H](Cc1ccncc1)C(=O)N[C@@H](CC1CCCCC1)C(=O)NC(C)(C)C(=O)N[C@@H](CC(N)=O)C(=O)N[C@@H](CCCCN)C(=O)NC(C)(C)C(=O)N[C@H](C(=O)N[C@@H](CCCNC(=N)N)C(=O)N[C@@H](CCC(N)=O)C(=O)N[C@@H](CCCNC(=N)N)C(=O)N[C@@H](CC1CCCCC1)C(N)=O)[C@@H](C)O) [Ac-[Leu22, D-Pro24, Pya(4)26, Cha27,36, Aib28,31, Lys30]-PYY(22-36)] , result: 1

meta.source: patent US20120172293A1
